MFI at 33.3 nM listing for selected binders.
- Assay Target: PD-L1 (human)
- Sequence (chain, as listed by the source): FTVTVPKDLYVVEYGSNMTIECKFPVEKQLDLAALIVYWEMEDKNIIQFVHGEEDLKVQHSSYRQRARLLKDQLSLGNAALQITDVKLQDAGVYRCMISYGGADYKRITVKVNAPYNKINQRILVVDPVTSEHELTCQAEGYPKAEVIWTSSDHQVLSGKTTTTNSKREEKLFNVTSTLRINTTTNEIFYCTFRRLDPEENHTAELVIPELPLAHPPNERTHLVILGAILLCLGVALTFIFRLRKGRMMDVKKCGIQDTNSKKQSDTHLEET
- Method Notes: flow cytometry, CHO cells stably expressing PD-L1
Record the result as number plus unit.

{"columns": ["Binder", "MFI at 33.3 nM"],
 "data": [
  ["CD80 variant H18Y/Q33L/E35D/M47I IgV-Fc (Fc fusion) VIHVTKEVKEVATLSCGYNVSVEELAQTRIYWLKDKKMVLTMMSGDINIWPEYKNRTIFDITNNLSIVILALRPSDEGTYECVVLKYEKDAFKREHLAEVT", "47800 MFI"]
]}

Entry CD80 variant Q33L/E35D/T41S/M47V IgV-Fc (Fc fusion) VIHVTKEVKEVATLSCGHNVSVEELAQTRIYWLKDKKMVLSMMSGDVNIWPEYKNRTIFDITNNLSIVILALRPSDEGTYECVVLKYEKDAFKREHLAEVT needs its MFI at 33.3 nM filled in; supply it.
43800 MFI

Could you please provide reported MFI at 33.3 nM for CD80 variant Y31S/E35D/M47L/T79L/E88G IgV-Fc (Fc fusion) VIHVTKEVKEVATLSCGHNVSVEELAQTRISWQKDKKMVLTMMSGDLNIWPEYKNRTIFDITNNLSIVILALRPSDEGLYECVVLKYGKDAFKREHLAEVT ? Thanks!
38900 MFI

Quickly give me recorded MFI at 33.3 nM for CD80 variant Q33L/E35D/M43I/L85Q/R94W IgV-Fc (Fc fusion) VIHVTKEVKEVATLSCGHNVSVEELAQTRIYWLKDKKMVLTMISGDMNIWPEYKNRTIFDITNNLSIVILALRPSDEGTYECVVQKYEKDAFKWEHLAEVT
29000 MFI
